B1: Osa-1-4 twister ribozyme (parent)
chain: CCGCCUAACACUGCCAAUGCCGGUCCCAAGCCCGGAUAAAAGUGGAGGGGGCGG

Variants of: B1
assayExplanation: self-cleavage, relative activity (ratio to wild type); higher = more cleavage; co-transcriptional
Cut-off 0.1 on self-cleavage, inclusive. At or above means MET; below means NOT MET.

mutantCode	assignedLabel
A39U C31A	NOT MET
C26U C33G	NOT MET
A41C G44U	MET
G35U G47A	MET

Lookup: In plain terms: is recorded self-cleavage at least 0.1 for C25A G35U ?
Found: NOT MET

Lookup: Reported self-cleavage reaches at least 0.1 for C33G G42A ?
Found: NOT MET

Lookup: Evaluate C21A C31U : self-cleavage at minimum 0.1?
Found: MET

Lookup: Reported self-cleavage at or above 0.1? G30A G53U
Found: NOT MET

Lookup: Has A36C A46G a recorded self-cleavage greater than or equal to 0.1?
Found: NOT MET

Lookup: Test whether the variant A7C U12C records self-cleavage of 0.1 or higher.
Found: NOT MET

Lookup: In plain terms: is recorded self-cleavage at least 0.1 for A29C U18C ?
Found: NOT MET

Lookup: Is the recorded value of self-cleavage equal to or greater than 0.1 for this variant? A16C A40U
Found: MET

Lookup: Determine whether this variant has self-cleavage no lower than 0.1: A40U G34C
Found: MET

Lookup: Could you please find out whether C20U U18C has self-cleavage that meets 0.1 or exceeds it?
Found: MET
